Tested on: rodent lifetime carcinogenesis bioassay, tumor incidence TD50
ASSAY EXPLANATION: carcinogenic potency in animals, long-term in vivo studies, CPDB compilation (AID 1745844)
PARTICULARS: rat; strain Fischer 344; males; in drinking water; site: lung; lesion: alveolar/bronchiolar adenoma; dosed 104 weeks; study length 104 weeks
MEASURED METRIC: TD50 (mg/kg/day)
The answer is to be given in mg/kg/day; state only the numeric part.

For the molecule `Cc1ccc(S(=O)(=O)Oc2ccc(N=Nc3ccc(-c4ccc(N=Nc5c(O)ccc6cc(S(=O)(=O)O)cc(S(=O)(=O)O)c56)c(C)c4)cc3C)cc2)cc1` , give its measured TD50 value.
39

* * *

Test system: rodent lifetime carcinogenesis bioassay, tumor incidence TD50
ASSAY EXPLANATION: carcinogenic potency in animals, long-term in vivo studies, CPDB compilation (AID 1745844)
PARTICULARS: mouse; strain Charles River CD1; females; in feed; site: liver; lesion: hepatoma; dosed 52 weeks; study length 69 weeks
MEASURED METRIC: TD50

For the molecule C=CC(O)c1ccc2c(c1)OCO2 (stereo unspecified) , give its measured TD50 value.
49.1 mg/kg/day

* * *

Test system: rodent lifetime carcinogenesis bioassay, tumor incidence TD50
ASSAY EXPLANATION: carcinogenic potency in animals, long-term in vivo studies, CPDB compilation (AID 1745844)
PARTICULARS: rat; strain Sas:MRC(WI)BR; males; in feed; site: testis; lesion: several types; types named in the paper; dosed 140 weeks; study length 144 weeks
MEASURED METRIC: TD50

For the compound `Cc1ncc([N+](=O)[O-])n1CCO` , give its measured TD50 value.
993 mg/kg/day

* * *

Tested on: rodent lifetime carcinogenesis bioassay, tumor incidence TD50
ASSAY EXPLANATION: carcinogenic potency in animals, long-term in vivo studies, CPDB compilation (AID 1745844)
PARTICULARS: hamster; strain Syrian Golden; females; by gavage; site: forestomach; lesion: several types; types named in the paper; dosed 41 weeks; study length 75 weeks
MEASURED METRIC: TD50

Write down the reported TD50 (system: rodent lifetime carcinogenesis bioassay, tumor incidence TD50) of CC(O)CN(CC(O)CO)N=O (stereo unspecified)
1.59 mg/kg/day

* * *

Tested on: rodent lifetime carcinogenesis bioassay, tumor incidence TD50
ASSAY EXPLANATION: carcinogenic potency in animals, long-term in vivo studies, CPDB compilation (AID 1745844)
PARTICULARS: rat; strain Osborne-Mendel; males; inhaled; site: any site (literature study); lesion: several types; types named in the paper; dosed 103 weeks; study length 106 weeks
MEASURED METRIC: TD50 (mg/kg/day)
The answer is to be given in mg/kg/day; state only the numeric part.

For the compound C=CCOCC1CO1 (stereo unspecified) , give its measured TD50 value.
1.01

* * *

Tested on: rodent lifetime carcinogenesis bioassay, tumor incidence TD50
ASSAY EXPLANATION: carcinogenic potency in animals, long-term in vivo studies, CPDB compilation (AID 1745844)
PARTICULARS: mouse; strain B6C3F1; males; by gavage; site: forestomach + preputial gland; lesion: squamous-cell carcinoma + squamous-cell papilloma; dosed 102 weeks; study length 103 weeks
MEASURED METRIC: TD50 (mg/kg/day)
The answer is to be given in mg/kg/day; state only the numeric part.

Write down the reported TD50 (system: rodent lifetime carcinogenesis bioassay, tumor incidence TD50) of `CC(C)=CCl`
15.2

Data provenance: PubChem BioAssay AID1745844
